- Test system: Pigweed, Palmer (palmer amaranth, palmer pigweed, Amaranthus palmeri)
- RUN_DESCRIPTION: Test A1 preemergence, Pigweed, Palmer
- Type: in vivo
- ASSAY_CONDITIONS: 125 g ai/ha, 0 to 100 scale, 0 no effect, 100 complete control
What Plant response rating, Pigweed, Palmer was measured for each of the following?
Just the number, please.

Name the recorded Plant response rating, Pigweed, Palmer of the molecule listed here: Cc1cc(C)c(N(COC(=O)C(C)(C)C)S(=O)(=O)C(F)(F)F)cc1N1CCC2(CCC(C(F)(F)F)CC2)C1=O (stereo not shown) [Compound 403]
0

Fill in reported Plant response rating, Pigweed, Palmer for this entry: COC1CCCN(C(=O)c2cc(NS(=O)(=O)C(F)(F)F)c(Cl)c(F)c2C)C1 (stereo not shown) [Compound 334]
70

Give me measured Plant response rating, Pigweed, Palmer, please, for this molecule: COC1CCN(C(=O)c2cc(NS(=O)(=O)C(F)(F)F)c(C)c(C)c2C)CC1 [Compound 367]
100

Answer with the recorded Plant response rating, Pigweed, Palmer for the molecule listed here: Cc1cc(C)c(N(COC(=O)C(C)(C)C)S(=O)(=O)C(F)(F)F)cc1C1=NOC2OCCC12 (stereo not shown) [Compound 352]
100

Please indicate Plant response rating, Pigweed, Palmer recorded for COC(=O)OCN(c1cc(C2=NOC3CCCC23)c(C)cc1C)S(=O)(=O)C(F)(F)F (stereo not shown) [Compound 315]
90

Supply reported Plant response rating, Pigweed, Palmer belonging to this molecule: CCc1cc(C)c(C2=NOC3(CCCC3)C2)cc1NS(=O)(=O)C(F)(F)F [Compound 311]
30

Report Plant response rating, Pigweed, Palmer, nothing else, for this molecule: Cc1cc(C)c(N(S(=O)(=O)C(F)(F)F)S(=O)(=O)C(F)(F)F)cc1C1=NOC2COCC12 (stereo not shown) [Compound 296]
80

Retrieve Plant response rating, Pigweed, Palmer measured for CCC1ON=C(c2cc(N(C(=O)OCC(C)C)S(=O)(=O)C(F)(F)F)c(C)cc2C)C1CC (stereo not shown) [Compound 348] and print it.
90

Please give measured Plant response rating, Pigweed, Palmer of the following entry: Cc1cc(C)c(C2=NOC3OCCC23)cc1NS(=O)(=O)C(F)(F)F (stereo not shown) [Compound 349]
100

State its Plant response rating, Pigweed, Palmer for this molecule: Cc1cc(C)c(N(COC(=O)C(C)(C)C)S(=O)(=O)C(F)(F)F)cc1N1CCC2(CCC(F)(F)CC2)C1=O [Compound 397]
90

Please indicate Plant response rating, Pigweed, Palmer recorded for Cc1c(NS(=O)(=O)C(F)(F)F)cc(C(=O)N2CCC(C)CC2)c(C)c1C [Compound 366]
100

Report measured Plant response rating, Pigweed, Palmer; entry is Cc1c(NS(=O)(=O)C(F)(F)F)cc(C(=O)N2CCOCC2)c(C)c1Cl [Compound 290]
50

// fetch Plant response rating, Pigweed, Palmer given entry C#CCN(C)C(=O)c1cc(NS(=O)(=O)C(F)(F)F)c(C)c(C)c1C [Compound 368]
100

Indicate the recorded Plant response rating, Pigweed, Palmer value for this molecule: Cc1c(NS(=O)(=O)C(F)(F)F)cc(C(=O)N2CCCCC2)c(C)c1C [Compound 326]
100

Return Plant response rating, Pigweed, Palmer (reported value) for this molecule: Cc1cc(C)c(N(C(=O)OCC(C)C)S(=O)(=O)C(F)(F)F)cc1C1=NOC2CCCC12 (stereo not shown) [Compound 299]
70

Quote Plant response rating, Pigweed, Palmer reported for Cc1cc(Br)c(C2=NOC3CCCC23)cc1NS(=O)(=O)C(F)(F)F (stereo not shown) [Compound 302] please.
50

The reported numbers originate from patent US20230278972A1.
